Assignment: determine reported half-life for the given compounds.
Assay: In vivo antitumor efficacy in nude mice by injecting a dose of 25 mg/kg, as HCl salt in saline solution, iv and the serum half-life was determined
Format: ADME, organism-based
Parameters: dose 25 mg/kg, route intravenous
Conditions: mouse
One number for each entry, in h.

compound: O=C(Cc1cc[n+]([O-])cc1)N1CCN([C@@H]2c3ccc(Cl)cc3CCc3cccnc32)CC1
half-life [h]: 1.1
//
compound: CC(=O)N1CCC(CC(=O)N2CCN(C3c4ccc(Cl)cc4CCc4cc(Br)cnc43)CC2)CC1 (centres undefined)
half-life [h]: 0.37
//
compound: CN1CCCC(CC(=O)N2CCN(C3c4ccc(Cl)cc4CCc4cc(Br)cnc43)CC2)C1 (centres undefined)
half-life [h]: 5.7
//
compound: NC(=O)N1CCC(CC(=O)N2CCN(C3c4ccc(Cl)cc4CCc4cc(Br)cnc43)CC2)CC1 (centres undefined)
half-life [h]: 1.2
//
compound: O=C(CC1CCNCC1)N1CCN(C2c3ccc(Cl)cc3CCc3cc(Br)cnc32)CC1 (centres undefined)
half-life [h]: 2

Your task in this section: give half-life for each listed record.
1. CNC(=O)N1CCC(CC(=O)N2CCN(C3c4ccc(Cl)cc4CCc4cc(Br)cnc43)CC2)CC1 (centres undefined)
2. CN1CCC(CC(=O)N2CCN(C3c4ccc(Cl)cc4CCc4cc(Br)cnc43)CC2)CC1 (centres undefined)
3. O=C(Cc1cccnc1)N1CCN(C2c3ccc(Cl)cc3CCc3cccnc32)CC1 (centres undefined)

0.5
8.5
0.2

###

Test: In vivo antitumor efficacy in nude mice by injecting a dose of 25 mg/kg, micronized free base in 20% HPbetaCD, perorally and the total drug exposure was determined (0-24hr)
Assay type: ADME, organism-based
Design: time < 24 hr, dose 25 mg/kg, route oral
Settings: mouse, po
attribute.measured: AUC at 24 h

Report AUC at 24 h, nothing else, for this molecule: NC(=O)N1CCC(CC(=O)N2CCN(C3c4ccc(Cl)cc4CCc4cc(Br)cnc43)CC2)CC1 (stereo unspecified) 55200 ng·h/mL

###

Assay: In vivo antitumor efficacy expressed as plasma area under the curve 0.4 hr after a peroral dose of 25 mg/kg in nude mice
Format: ADME, organism-based
Set-up: time < 0.4 hr, dose 25 mg/kg, route oral
Details: mouse, po
attribute.measured: AUC at 0.4 h (ng·h/mL)
Answers are plain numbers, in ng·h/mL.

Report AUC at 0.4 h, nothing else, for this compound: O=C(Cc1ccncc1)N1CCN(C2c3ccc(Cl)cc3CCc3cccnc32)CC1 (stereo unspecified) 240

###

Biological target: geranylgeranyltransferase type-I (Rattus norvegicus, UniProt P53610+Q04631)
Assay: Inhibition of rat Geranylgeranyl transferase (GGPT)
Assignment: determine reported IC50 for the given molecules.

molecule: O=C(C(c1ccccc1)c1ccccc1)N1CCN(C2c3ccc(Cl)cc3CCc3cccnc32)CC1 (configuration not stated)
IC50: > 50 µM

Your task in this section: give IC50 for each listed record.
1. CN1CCCC(CC(=O)N2CCN(C3c4ccc(Cl)cc4CCc4cc(Br)cnc43)CC2)C1 (configuration not stated)
2. O=C(Cc1ccncc1)N1CCN(C2c3ccc(Cl)cc3CCc3cccnc32)CC1 (configuration not stated)
3. O=C(Nc1cccnc1)N1CCN(C2c3ccc(Cl)cc3CCc3cc(Br)cnc32)CC1 (configuration not stated)
4. CN1CCC(CC(=O)N2CCN([C@@H]3c4ccc(Cl)cc4CCc4cc(Br)cnc43)CC2)CC1
5. O=C(Nc1ccncc1)N1CCN(C2c3ccc(Cl)cc3CCc3cccnc32)CC1 (configuration not stated)

> 38 µM
> 46 µM
> 10 µM
> 38 µM
> 40 µM

Your task in this section: give IC50 for each listed record.
1. O=C(/C=C/c1cccnc1)N1CCN(C2c3ccc(Cl)cc3CCc3cccnc32)CC1 (configuration not stated)
2. CNC(=O)N1CCC(CC(=O)N2CCN(C3c4ccc(Cl)cc4CCc4cc(Br)cnc43)CC2)CC1 (configuration not stated)
3. CCCC[C@H]1CN(C2c3ccc(Cl)cc3CCc3cc(Br)cnc32)CCN1C(=O)Cc1cc[n+]([O-])cc1 (some centres not stated)
4. CCCNC(=O)N1CCC(CC(=O)N2CCN(C3c4ccc(Cl)cc4CCc4cc(Br)cnc43)CC2)CC1 (configuration not stated)
5. O=C(Cc1ccccn1)N1CCN(C2c3ccc(Cl)cc3CCc3cccnc32)CC1 (configuration not stated)
6. CN1CCC(CC(=O)N2CCN([C@H]3c4ccc(Cl)cc4CCc4cc(Br)cnc43)CC2)CC1

> 50 µM
> 35 µM
> 34.2 µM
> 33 µM
> 46 µM
> 38 µM

###

Biological target: Protein farnesyltransferase (Homo sapiens, UniProt P49354+P49356)
Assay: Inhibition of Farnesyltransferase from Ras-CVLS or Ras-CVLL in Cos-7 monkey kidney cells
Format: cell-based, Chlorocebus aethiops
attribute.measured: IC50 (nM)
Answers are plain numbers, in nM.

compound: O=C(Cc1ccccc1)N1CCN(C2c3ccc(Cl)cc3CCc3cccnc32)CC1 (centres undefined)
attribute.measured: IC50
unit.descriptor: nM
recorded.value: 12000
--
compound: O=C(Cc1cccnc1)N1CCN(C2c3ccc(Cl)cc3CCc3cc(Br)cnc32)CC1 (centres undefined)
attribute.measured: IC50
unit.descriptor: nM
recorded.value: 850

Report IC50, nothing else, for this compound: CCCC[C@H]1CN(C2c3ccc(Cl)cc3CCc3cc(Br)cnc32)CCN1C(=O)CC1CCN(C(N)=O)CC1 (some centres undefined) 600

###

Assignment: determine reported half-life for the given molecules.
Assay: In vivo antitumor efficacy in nude mice by injecting a dose of 25 mg/kg iv and serum half-life was determined
Assay type: ADME, organism-based
Design: dose 25 mg/kg, route intravenous
Conditions: mouse
Numbers only, in min.

molecule: O=C(Cc1ccc[n+]([O-])c1)N1CCN(C2c3ccc(Cl)cc3CCc3cc(Br)cnc32)CC1 (stereo not given)
unit.descriptor: min
half-life: 60
//
molecule: O=C(Cc1cc[n+]([O-])cc1)N1CCN(C2c3ccc(Cl)cc3CCc3cc(Br)cnc32)CC1 (stereo not given)
unit.descriptor: min
half-life: 72
//
molecule: O=C(Cc1ccc[n+]([O-])c1)N1CCN(C2c3ccc(Cl)cc3CCc3cccnc32)CC1 (stereo not given)
unit.descriptor: min
half-life: 36
//
molecule: O=C(Cc1cc[n+]([O-])cc1)N1CCN([C@H]2c3ccc(Cl)cc3CCc3cccnc32)CC1
unit.descriptor: min
half-life: 48

Your task in this section: give half-life for each listed record.
1. CCCC[C@H]1CN(C2c3ccc(Cl)cc3CCc3cc(Br)cnc32)CCN1C(=O)Cc1cc[n+]([O-])cc1 (stereo not given in full)
2. O=C(Cc1cc[n+]([O-])cc1)N1CCN([C@H]2c3ccc(Cl)cc3CCc3cc(Br)cnc32)CC1
3. CC(C)(C(=O)N1CCN(C2c3ccc(Cl)cc3CCc3cc(Br)cnc32)CC1)c1ccc[n+]([O-])c1 (stereo not given)
4. O=C(Cc1ccncc1)N1CCN(C2c3ccc(Cl)cc3CCc3cccnc32)CC1 (stereo not given)
5. O=C(Cc1cc[n+]([O-])cc1)N1CCN([C@@H]2c3ccc(Cl)cc3CCc3cc(Br)cnc32)CC1
6. O=C(Cc1ccncc1)N1CCN(C2c3ccc(Cl)cc3CCc3cc(Br)cnc32)CC1 (stereo not given)

1: 120; 2: 114; 3: 36; 4: 12; 5: 70.8; 6: 44.4

###

Assay: In vivo antitumor efficacy in cynomolgus monkeys 0-8 hours after peroral dose of 25 mg/kg expressed as Area under the curve
Format: ADME, organism-based, Macaca fascicularis
Set-up: time < 8 hr, dose 25 mg/kg, route oral
Conditions: cynomolgus monkey, po
attribute.measured: AUC at 8 h (ng·h/mL)
Answers are plain numbers, in ng·h/mL.

Report AUC at 8 h, nothing else, for this compound: O=C(Cc1cc[n+]([O-])cc1)N1CCN([C@H]2c3ccc(Cl)cc3CCc3cc(Br)cnc32)CC1 58100

###

Test: In vivo antitumor efficacy in nude mice by injecting a dose of 25 mg/kg, as HCl salt in saline solution, iv and the total drug exposure was determined. (0-24hr)
Assay type: ADME, organism-based
Parameters: time < 24 hr, dose 25 mg/kg, route intravenous
Details: mouse
attribute.measured: AUC at 24 h (ng·h/mL)
Answers are plain numbers, in ng·h/mL.

# count of solved cases: 2
molecule: CCCC[C@H]1CN(C2c3ccc(Cl)cc3CCc3cc(Br)cnc32)CCN1C(=O)Cc1cc[n+]([O-])cc1 (stereo partly drawn)
recorded.value: 91400

molecule: CC(=O)N1CCC(CC(=O)N2CCN(C3c4ccc(Cl)cc4CCc4cc(Br)cnc43)CC2)CC1 (stereo not drawn)
recorded.value: 9510

Next:
Report AUC at 24 h, nothing else, for this molecule: NC(=O)N1CCC(CC(=O)N2CCN(C3c4ccc(Cl)cc4CCc4cc(Br)cnc43)CC2)CC1 (stereo not drawn) 33900
